ASSAY DETAILS: Aqueous solubility of compound at pH 7.4
Format: physicochemical
PARAMETER MEASURED: solubility (µM)
Note: unit µM is implicit; provide only the numeric part.

molecule Cc1nc(NC(=O)NC(=O)C(C)(C)C)ccc1Oc1ccnc(-c2cnn(C)c2)c1 , solubility observed: 95.6

----------
ASSAY DETAILS: Metabolic stability in mouse liver microsomes assessed as compound remaining at 60 mins
Format: ADME, Microsome
TEST CONTEXT: read-out: Stability
PARAMETER MEASURED: remaining at 1 h (%)
Note: unit % is implicit; provide only the numeric part.

molecule Cc1nc(NC(=O)NC(=O)C(C)(C)C)ccc1Oc1ccnc(-c2cnn(C)c2)c1 , remaining at 1 h observed: 91

----------
ASSAY DETAILS: Plasma concentration in DBA/1 mouse at 15 mg/kg, po administered once daily for 6 days and measured at 12 hrs
Type: ADME, organism-based
TEST CONTEXT: time 6 day
PARAMETER MEASURED: concentration at 144 h (ng/mL)
Note: unit ng/mL is implicit; provide only the numeric part.

molecule Cc1nc(NC(=O)NC(=O)C(C)(C)C)ccc1Oc1ccnc(-c2cnn(C)c2)c1 , concentration at 144 h observed: 163

----------
ASSAY DETAILS: Plasma protein binding in human
Format: ADME, cell-free
TEST CONTEXT: read-out: PPB (converted)
PARAMETER MEASURED: fraction unbound

compound Cc1nc(NC(=O)NC(=O)C(C)(C)C)ccc1Oc1ccnc(-c2cnn(C)c2)c1 , fraction unbound observed: 0.023
